Target: N-terminally GST-tagged DLK (catalytic domain amino acid 1-520) (Homo sapiens, UniProt Q12852)
Construct: N-terminally GST-tagged DLK (catalytic domain amino acid 1-520)
Sequence (Q12852 1-520): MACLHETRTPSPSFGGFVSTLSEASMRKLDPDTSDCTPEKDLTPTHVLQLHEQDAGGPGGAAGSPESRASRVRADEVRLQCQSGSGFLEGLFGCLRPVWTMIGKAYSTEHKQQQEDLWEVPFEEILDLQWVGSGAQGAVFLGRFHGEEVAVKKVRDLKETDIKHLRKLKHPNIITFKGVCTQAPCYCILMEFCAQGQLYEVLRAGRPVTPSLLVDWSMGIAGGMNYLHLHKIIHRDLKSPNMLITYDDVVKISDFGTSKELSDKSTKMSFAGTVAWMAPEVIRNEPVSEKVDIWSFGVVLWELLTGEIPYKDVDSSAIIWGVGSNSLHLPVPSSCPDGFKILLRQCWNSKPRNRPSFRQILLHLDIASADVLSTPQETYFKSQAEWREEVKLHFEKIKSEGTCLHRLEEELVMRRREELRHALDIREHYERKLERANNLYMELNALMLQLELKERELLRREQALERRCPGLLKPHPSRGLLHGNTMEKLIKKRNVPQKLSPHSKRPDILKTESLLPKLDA
Assay Procedure: DLK TR-FRET inhibition assay
Condition Parameters: 5 nM GST-DLK, 40 nM HIS-MKK4 K131M substrate, 30 μM ATP, 60 minutes at ambient temperature
Measured Metric: pKi
// pKi here means minus log10 of the molar concentration (mol/L)

Input Nc1ncc(-c2cc([C@H]3[C@@H]4C[C@H](N5CCOCC5)C[C@@H]43)n(CC(F)F)n2)cc1OC(F)(F)F , output reported pKi.
8.91

Input CO[C@H]1CCN([C@@H]2C[C@@H]3[C@H](C2)[C@H]3c2cc(-c3cnc(N)c(OC(F)(F)F)c3)nn2C(C)C)C1 , output reported pKi.
8.82

Input CC(C)n1nc(-c2cnc(N)c(OC(F)F)c2)cc1[C@H]1[C@@H]2C[C@@H](F)C[C@@H]21 , output reported pKi.
8.38

Input CC(C)n1nc(-c2cnc(N)c(C(F)(F)F)c2)cc1[C@H]1[C@@H]2C[C@H](N3CCOCC3)C[C@@H]21 , output reported pKi.
8.40

Input CC(C)n1nc(-c2cnc(N)c(C(F)(F)F)c2)cc1[C@H]1[C@@H]2C[C@@H](N(C)C3COC3)C[C@@H]21 , output reported pKi.
8.55

Input CC(C)n1nc(-c2cnc(N)c(OC(F)F)c2)cc1[C@H]1[C@@H]2C[C@@H](N3CCOC[C@@H]3C)C[C@@H]21 , output reported pKi.
8.96

Input CC(C)n1nc(-c2cnc(N)c(OC(F)(F)F)c2)cc1[C@H]1[C@@H]2C[C@H](N3CCCOCC3)C[C@@H]21 , output reported pKi.
9.36

Input CC(C)N1CCN([C@@H]2C[C@@H]3[C@H](C2)[C@H]3c2cc(-c3cnc(N)c(OC(F)F)c3)nn2C(C)C)CC1 , output reported pKi.
8.74

Input CC(C)n1nc(-c2cnc(N)c(OC(F)(F)F)c2)cc1[C@H]1[C@@H]2C[C@@H](N3CCCOCC3)C[C@@H]21 , output reported pKi.
8.94

Input Nc1ncc(-c2cc([C@H]3[C@@H]4C[C@H](N5CCOCC5)C[C@@H]43)nn2CC2CC2)cc1OC(F)F , output reported pKi.
6.66

Input CC(C)n1nc(-c2cnc(N)c(C(F)(F)F)c2)cc1[C@H]1[C@@H]2C[C@@H](n3ccnc3)C[C@@H]21 , output reported pKi.
7.82

Input CC(C)n1nc(-c2cnc(N)c(OC(F)F)c2)cc1[C@H]1[C@@H]2C[C@H](N3CC4CC(C3)O4)C[C@@H]21 , output reported pKi.
8.59

Input CC(C)n1nc(-c2cnc3cnn([C@@H](C)c4ccccn4)c3c2)cc1[C@H]1[C@@H]2C[C@H](N3CCOCC3)C[C@@H]21 , output reported pKi.
8.38
